Hello, the source for this data is patent US20180214428A1, in case you need it.

# Tested on: IL-6
# Experimental details: IL-6 inhibition in LPS-stimulated THP-1 monocytes (HTRF)
# Format: cell-based, human
# Cond: Homo sapiens; THP-1 cells, 500 ng/mL LPS, 22 h, HTRF IL-6 readout; 10-point dose-response from 10 μM
Quantity: EC50

Given item O=C(Nc1cncc(-c2cnc3[nH]nc(-c4cc5c(-c6ccc(F)cc6)cccc5[nH]4)c3c2)c1)C1CCC1 , the value recorded as its EC50 is > 10 µM

Given item CN(C)CCNc1cc(F)cc(-c2cccc3[nH]c(-c4n[nH]c5ncc(-c6cncc(NC(=O)C7CCC7)c6)cc45)cc23)c1 , the value recorded as its EC50 is > 10 µM

Given item CCCC(=O)Nc1cncc(-c2cnc3[nH]nc(-c4cc5c(-c6cccc(F)c6)cccc5[nH]4)c3c2)c1 , the value recorded as its EC50 is > 10 µM
